Value source: ChEMBL document CHEMBL4418260

Molecular target: Fatty acid synthase (Homo sapiens)
Sequence (P49327 whole entry): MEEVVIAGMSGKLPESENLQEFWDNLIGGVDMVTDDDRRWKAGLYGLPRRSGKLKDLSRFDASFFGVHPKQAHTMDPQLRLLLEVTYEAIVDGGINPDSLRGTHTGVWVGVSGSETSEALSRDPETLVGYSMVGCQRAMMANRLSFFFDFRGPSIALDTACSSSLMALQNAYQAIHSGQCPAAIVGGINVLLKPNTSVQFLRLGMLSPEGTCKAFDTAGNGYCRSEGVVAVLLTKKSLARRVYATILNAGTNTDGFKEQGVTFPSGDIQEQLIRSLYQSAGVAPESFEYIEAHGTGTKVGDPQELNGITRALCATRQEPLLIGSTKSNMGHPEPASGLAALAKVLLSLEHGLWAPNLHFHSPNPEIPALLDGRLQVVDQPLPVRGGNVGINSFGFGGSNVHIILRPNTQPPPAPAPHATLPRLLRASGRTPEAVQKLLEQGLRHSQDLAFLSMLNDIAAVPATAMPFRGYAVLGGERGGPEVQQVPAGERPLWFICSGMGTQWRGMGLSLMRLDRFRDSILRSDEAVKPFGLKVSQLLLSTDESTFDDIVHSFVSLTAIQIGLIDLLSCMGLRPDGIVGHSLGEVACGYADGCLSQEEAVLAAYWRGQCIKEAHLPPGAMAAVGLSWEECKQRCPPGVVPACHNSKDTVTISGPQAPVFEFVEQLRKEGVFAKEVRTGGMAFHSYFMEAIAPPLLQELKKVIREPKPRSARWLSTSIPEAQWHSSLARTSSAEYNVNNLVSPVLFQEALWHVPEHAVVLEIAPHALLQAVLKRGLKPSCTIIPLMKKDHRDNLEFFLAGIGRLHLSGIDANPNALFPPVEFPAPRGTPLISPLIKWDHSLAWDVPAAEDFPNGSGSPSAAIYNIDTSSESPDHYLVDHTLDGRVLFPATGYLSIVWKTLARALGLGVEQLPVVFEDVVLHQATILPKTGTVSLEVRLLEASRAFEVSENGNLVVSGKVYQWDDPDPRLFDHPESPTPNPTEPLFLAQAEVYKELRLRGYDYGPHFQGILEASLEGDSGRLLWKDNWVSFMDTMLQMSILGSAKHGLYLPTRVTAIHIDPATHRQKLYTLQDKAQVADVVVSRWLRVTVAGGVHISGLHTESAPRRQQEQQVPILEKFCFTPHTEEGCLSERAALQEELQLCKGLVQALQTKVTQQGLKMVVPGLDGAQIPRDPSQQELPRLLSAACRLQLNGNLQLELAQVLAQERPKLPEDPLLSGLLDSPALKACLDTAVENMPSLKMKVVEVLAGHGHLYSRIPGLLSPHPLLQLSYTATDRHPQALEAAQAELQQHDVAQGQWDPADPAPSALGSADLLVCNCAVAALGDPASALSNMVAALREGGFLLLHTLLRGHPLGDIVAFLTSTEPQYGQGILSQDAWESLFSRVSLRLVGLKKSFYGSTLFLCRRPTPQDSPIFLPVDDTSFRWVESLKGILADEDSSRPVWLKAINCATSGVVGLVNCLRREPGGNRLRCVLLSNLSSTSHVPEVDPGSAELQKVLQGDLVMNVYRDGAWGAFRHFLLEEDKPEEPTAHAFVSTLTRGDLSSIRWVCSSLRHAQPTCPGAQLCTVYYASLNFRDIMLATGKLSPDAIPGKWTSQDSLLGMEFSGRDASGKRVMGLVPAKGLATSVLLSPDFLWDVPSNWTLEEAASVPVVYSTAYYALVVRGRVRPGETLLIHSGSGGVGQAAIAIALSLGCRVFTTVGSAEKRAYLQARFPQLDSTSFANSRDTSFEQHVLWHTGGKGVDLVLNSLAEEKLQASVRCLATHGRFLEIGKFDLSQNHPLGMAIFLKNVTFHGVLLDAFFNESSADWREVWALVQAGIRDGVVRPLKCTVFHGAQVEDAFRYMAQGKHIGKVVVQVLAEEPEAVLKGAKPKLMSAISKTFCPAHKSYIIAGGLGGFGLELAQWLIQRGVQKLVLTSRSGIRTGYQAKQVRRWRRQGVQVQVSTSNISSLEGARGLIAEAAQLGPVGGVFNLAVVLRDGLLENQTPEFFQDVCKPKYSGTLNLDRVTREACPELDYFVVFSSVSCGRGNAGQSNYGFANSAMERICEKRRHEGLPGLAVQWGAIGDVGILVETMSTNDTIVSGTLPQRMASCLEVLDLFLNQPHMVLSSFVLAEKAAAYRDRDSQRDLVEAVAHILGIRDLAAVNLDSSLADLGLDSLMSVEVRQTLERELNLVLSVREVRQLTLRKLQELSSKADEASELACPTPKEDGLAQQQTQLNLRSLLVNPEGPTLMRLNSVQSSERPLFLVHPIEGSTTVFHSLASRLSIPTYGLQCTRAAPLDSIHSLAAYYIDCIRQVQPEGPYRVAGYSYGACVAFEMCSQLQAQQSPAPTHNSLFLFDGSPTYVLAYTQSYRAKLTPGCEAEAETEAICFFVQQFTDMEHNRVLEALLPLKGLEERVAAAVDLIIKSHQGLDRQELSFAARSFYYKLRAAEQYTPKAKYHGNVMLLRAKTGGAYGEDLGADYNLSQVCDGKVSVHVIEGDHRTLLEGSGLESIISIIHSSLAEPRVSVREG
Assay: Inhibition of human HeLa cell derived FAS preincubated for 60 mins in presence of acetyl coenzyme A and NADPH followed by malonyl coenzyme A addition and measured after 10 mins by fluorescence method
property-label: IC50

Notebook: CN(C)CCCCCC(=O)N[C@H]1CC[C@@H](C(=O)N(C)c2ccc(-c3nc4ccccc4o3)cc2)C1 , IC50 read as 500 to 3000 nM

###

Target: Fatty acid synthase (Mus musculus) (UniProt P19096)
Sequence (P19096 whole entry): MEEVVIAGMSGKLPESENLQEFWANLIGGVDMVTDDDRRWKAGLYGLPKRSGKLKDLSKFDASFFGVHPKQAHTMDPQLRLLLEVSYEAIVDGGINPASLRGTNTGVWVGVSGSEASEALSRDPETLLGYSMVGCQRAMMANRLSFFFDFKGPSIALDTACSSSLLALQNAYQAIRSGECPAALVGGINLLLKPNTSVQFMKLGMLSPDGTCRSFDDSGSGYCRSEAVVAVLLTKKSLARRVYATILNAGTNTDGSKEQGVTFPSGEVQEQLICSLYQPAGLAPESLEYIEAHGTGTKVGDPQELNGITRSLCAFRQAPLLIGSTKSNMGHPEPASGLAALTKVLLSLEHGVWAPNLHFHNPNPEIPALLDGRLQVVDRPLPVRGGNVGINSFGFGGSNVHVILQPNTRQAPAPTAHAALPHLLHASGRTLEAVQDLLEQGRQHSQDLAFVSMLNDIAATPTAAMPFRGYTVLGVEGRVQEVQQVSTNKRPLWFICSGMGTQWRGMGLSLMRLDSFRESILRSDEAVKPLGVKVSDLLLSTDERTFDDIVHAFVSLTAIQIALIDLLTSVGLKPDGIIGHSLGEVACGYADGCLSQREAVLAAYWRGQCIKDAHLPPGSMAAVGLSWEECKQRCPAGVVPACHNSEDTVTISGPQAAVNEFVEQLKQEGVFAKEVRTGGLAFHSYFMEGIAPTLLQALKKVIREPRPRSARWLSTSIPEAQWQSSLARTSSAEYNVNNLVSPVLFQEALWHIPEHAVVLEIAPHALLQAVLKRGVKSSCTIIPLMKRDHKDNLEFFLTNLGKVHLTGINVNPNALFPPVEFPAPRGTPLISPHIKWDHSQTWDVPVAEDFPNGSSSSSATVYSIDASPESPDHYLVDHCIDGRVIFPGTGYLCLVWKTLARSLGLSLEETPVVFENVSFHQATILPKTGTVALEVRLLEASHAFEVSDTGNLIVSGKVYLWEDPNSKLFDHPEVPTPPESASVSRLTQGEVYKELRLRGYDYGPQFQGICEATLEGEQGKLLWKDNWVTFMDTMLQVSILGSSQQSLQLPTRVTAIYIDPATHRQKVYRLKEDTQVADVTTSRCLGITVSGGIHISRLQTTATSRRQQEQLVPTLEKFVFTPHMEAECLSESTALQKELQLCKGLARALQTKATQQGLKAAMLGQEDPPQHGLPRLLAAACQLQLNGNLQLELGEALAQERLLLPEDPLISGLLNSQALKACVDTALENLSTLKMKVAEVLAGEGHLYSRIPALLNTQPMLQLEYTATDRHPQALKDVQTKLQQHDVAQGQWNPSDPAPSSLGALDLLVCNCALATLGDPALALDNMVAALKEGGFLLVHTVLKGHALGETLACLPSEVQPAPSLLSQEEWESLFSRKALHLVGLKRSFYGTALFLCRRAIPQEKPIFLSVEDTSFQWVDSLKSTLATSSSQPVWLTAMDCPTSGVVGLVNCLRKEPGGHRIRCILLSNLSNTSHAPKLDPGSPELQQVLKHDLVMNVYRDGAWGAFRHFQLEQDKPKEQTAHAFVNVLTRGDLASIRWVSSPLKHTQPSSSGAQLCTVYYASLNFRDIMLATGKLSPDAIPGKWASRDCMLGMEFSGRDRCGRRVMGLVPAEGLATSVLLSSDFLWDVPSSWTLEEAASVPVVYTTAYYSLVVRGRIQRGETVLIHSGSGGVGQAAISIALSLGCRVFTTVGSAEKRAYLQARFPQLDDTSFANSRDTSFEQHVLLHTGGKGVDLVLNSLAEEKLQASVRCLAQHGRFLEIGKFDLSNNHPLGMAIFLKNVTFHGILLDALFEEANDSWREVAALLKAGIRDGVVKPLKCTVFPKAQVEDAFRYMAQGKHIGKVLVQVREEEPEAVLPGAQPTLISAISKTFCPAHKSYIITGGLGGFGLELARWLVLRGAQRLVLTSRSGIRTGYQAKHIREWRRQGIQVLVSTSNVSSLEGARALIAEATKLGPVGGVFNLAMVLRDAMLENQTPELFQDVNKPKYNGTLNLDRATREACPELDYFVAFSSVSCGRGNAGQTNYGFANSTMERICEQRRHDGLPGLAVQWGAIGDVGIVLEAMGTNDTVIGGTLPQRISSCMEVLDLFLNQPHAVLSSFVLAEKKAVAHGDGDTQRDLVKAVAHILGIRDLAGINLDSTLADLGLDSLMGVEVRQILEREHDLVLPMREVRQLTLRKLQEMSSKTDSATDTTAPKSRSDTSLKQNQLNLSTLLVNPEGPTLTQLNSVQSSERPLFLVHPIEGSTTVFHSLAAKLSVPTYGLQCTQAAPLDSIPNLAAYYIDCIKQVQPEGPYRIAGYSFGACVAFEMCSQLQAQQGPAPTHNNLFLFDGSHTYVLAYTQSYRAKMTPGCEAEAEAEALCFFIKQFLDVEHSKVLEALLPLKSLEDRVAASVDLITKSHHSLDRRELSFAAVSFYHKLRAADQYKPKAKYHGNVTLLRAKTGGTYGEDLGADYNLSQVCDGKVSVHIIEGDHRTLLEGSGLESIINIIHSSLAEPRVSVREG
Assay: Inhibition of FAS in mouse N42 cells assessed as [14C]-acetate incorporation at 10 uM preincubated for 60 mins followed by [14C]-acetate addition and measured after 4 hrs by beta scintillation counting method relative to control
Assay type: cell-based
Design: scale not given: the % may be the effect or the level left
So I've got a bunch of compounds here, and I need their Activity values.
Give bare numbers, in %.

Respectfully, I request Activity for each entry included below.
1. CCC(=O)N[C@H]1CC[C@@H](C(=O)N(C)c2ccc(-c3nc4ccccc4n3C)cc2)C1
2. CCCC(=O)N[C@H]1CC[C@@H](C(=O)N(C)c2ccc(-c3nc4ccccc4o3)cc2)C1
3. CCC(=O)N[C@H]1CC[C@@H](C(=O)N(C)c2ccc(-c3nc4ccccc4[nH]3)cc2)C1
4. CC(=O)N[C@H]1CC[C@@H](C(=O)N(C)c2ccc(-c3nc4ccccc4o3)cc2)C1

[85.7, 81, 80.8, 81.7]

Respectfully, I request Activity for each entry included below.
1. CCC(=O)N[C@H]1CC[C@@H](C(=O)N(C)c2ccc(-c3ccccc3)cc2)C1
2. CCC(=O)N[C@H]1CC[C@@H](C(=O)N(C)c2ccc(-c3nc4ccccc4o3)cc2)C1

1. 76.8
2. 64.1
